deltaT values by entry
test system: Mus musculus; test: Induction of hypothermia in CD-1 mouse assessed as change in body temperature at 20 mg/kg, ip measured after 60 mins by thermometric method; format: functional, organism-based
// return numeric value only (unit: °C, not printed)

COc1ccc2[nH]cc(C3CC(=O)N(CCCCN4CCC(c5c[nH]c6ccc(F)cc56)CC4)C3=O)c2c1 (stereo not drawn) : 0.5
COc1ccc2[nH]cc(C3CC(=O)N(CCCCN4CCC(c5c[nH]c6ccccc56)CC4)C3=O)c2c1 (stereo not drawn) : -1.5

Then this molecule:
Q: For the molecule O=C1CC(c2c[nH]c3ccc(F)cc23)C(=O)N1CCCCN1CCC(c2c[nH]c3ccc(F)cc23)CC1 (stereo not drawn) , what deltaT is on record?
Result: -0.4

---

target: hERG (KCNH2) (Homo sapiens, UniProt Q12809); assay: Inhibition of human ERG at 0.1 uM by automated patch-clamp assay relative to control
Sequence (Q12809 whole entry): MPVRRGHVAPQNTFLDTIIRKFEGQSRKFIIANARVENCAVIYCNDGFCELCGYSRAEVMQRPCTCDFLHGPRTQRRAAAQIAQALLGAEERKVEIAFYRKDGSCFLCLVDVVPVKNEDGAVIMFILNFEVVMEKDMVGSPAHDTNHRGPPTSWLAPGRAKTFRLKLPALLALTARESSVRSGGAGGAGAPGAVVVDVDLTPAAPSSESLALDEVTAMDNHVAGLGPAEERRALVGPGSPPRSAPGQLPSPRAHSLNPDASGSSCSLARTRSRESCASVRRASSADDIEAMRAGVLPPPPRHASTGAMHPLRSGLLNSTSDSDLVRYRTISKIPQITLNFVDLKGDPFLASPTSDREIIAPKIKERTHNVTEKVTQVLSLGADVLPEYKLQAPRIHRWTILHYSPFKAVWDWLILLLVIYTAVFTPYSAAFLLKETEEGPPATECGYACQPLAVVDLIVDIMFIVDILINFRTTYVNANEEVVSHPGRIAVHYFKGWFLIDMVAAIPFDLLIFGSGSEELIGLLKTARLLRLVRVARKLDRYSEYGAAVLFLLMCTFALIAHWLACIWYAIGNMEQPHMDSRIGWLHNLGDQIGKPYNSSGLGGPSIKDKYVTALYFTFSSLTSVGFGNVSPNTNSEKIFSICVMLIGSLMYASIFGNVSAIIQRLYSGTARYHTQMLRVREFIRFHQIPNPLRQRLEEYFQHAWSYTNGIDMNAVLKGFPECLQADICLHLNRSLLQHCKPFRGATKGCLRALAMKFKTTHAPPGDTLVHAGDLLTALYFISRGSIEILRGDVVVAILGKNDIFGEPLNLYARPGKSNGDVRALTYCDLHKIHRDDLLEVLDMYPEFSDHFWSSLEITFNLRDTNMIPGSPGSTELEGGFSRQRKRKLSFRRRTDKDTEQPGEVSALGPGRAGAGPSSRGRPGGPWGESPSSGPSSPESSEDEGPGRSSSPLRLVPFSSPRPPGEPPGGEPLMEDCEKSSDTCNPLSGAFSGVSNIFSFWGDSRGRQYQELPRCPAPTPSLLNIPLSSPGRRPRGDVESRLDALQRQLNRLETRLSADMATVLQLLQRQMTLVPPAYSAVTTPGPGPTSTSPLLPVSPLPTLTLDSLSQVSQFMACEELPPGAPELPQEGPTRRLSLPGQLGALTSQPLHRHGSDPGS
measurement-label: inhibition at 0.1 µM
Give the value; after it, write the unit.

Q: For the molecule O=C1CC(c2c[nH]c3ccccc23)C(=O)N1CCCCN1CCC(c2c[nH]c3ccc(F)cc23)CC1 (stereo unspecified) , what inhibition at 0.1 µM is on record?
Result: 45.1%

---

assay: Half life in human liver microsomes at 1 uM measured for 5 to 30 mins in presence of NADPH by LC-MS/MS analysis; type: ADME, Microsome
measurement-label: half-life at 1 µM (min)
// return numeric value only (unit: min, not printed)

COc1ccc2[nH]cc(C3CCN(CCCCN4C(=O)CC(c5c[nH]c6ccc(F)cc56)C4=O)CC3)c2c1 (configuration not stated) : 9.9
O=C1CC(c2c[nH]c3ccccc23)C(=O)N1CCCCN1CCC(c2c[nH]c3ccc(F)cc23)CC1 (configuration not stated) : 11.5
O=C1CC(c2c[nH]c3ccc(F)cc23)C(=O)N1CCCCN1CCC(c2c[nH]c3ccc(F)cc23)CC1 (configuration not stated) : 8.6
O=C1CC(c2c[nH]c3ccc(F)cc23)C(=O)N1CCCCN1CCC(c2c[nH]c3ccccc23)CC1 (configuration not stated) : 10

Q: For the molecule COc1ccc2[nH]cc(C3CC(=O)N(CCCCN4CCC(c5c[nH]c6ccccc56)CC4)C3=O)c2c1 (configuration not stated) , what half-life at 1 µM is on record?
Result: 10.5

Q: For the molecule COc1ccc2[nH]cc(C3CCN(CCCCN4C(=O)CC(c5c[nH]c6ccc(OC)cc56)C4=O)CC3)c2c1 (configuration not stated) , what half-life at 1 µM is on record?
Result: 9.7

Q: For the molecule COc1ccc2[nH]cc(C3CC(=O)N(CCCCN4CCC(c5c[nH]c6ccc(F)cc56)CC4)C3=O)c2c1 (configuration not stated) , what half-life at 1 µM is on record?
Result: 9.9

---

Target: 5-hydroxytryptamine receptor 1A (Homo sapiens)
Sequence (P08908 whole entry): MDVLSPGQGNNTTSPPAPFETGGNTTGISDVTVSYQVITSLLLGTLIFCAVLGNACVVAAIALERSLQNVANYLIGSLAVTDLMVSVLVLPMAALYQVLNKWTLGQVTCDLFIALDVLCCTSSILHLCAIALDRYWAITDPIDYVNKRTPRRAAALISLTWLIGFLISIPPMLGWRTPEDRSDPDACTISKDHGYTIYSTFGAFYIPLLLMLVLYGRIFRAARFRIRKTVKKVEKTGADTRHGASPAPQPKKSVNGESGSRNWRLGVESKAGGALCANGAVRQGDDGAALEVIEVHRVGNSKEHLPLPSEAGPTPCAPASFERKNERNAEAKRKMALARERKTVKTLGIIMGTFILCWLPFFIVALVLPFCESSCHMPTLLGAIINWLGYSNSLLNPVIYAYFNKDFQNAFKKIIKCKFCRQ
measurement-label: Ki (nM)
// return numeric value only (unit: nM, not printed)

Q: For the compound `O=c1ccc2ccc(OCCCCN3CCN(c4cccc5sccc45)CC3)cc2[nH]1` , what Ki is on record?
Result: 0.12
